Tested System: T1, human CD47-Fc (human, UniProt Q08722 19-139)
T1 construct: Recombinant CD47-Fc; also called hCD47-Fc; not shown: Fc part
T1 sequence (Q08722 19-139 limits assumed): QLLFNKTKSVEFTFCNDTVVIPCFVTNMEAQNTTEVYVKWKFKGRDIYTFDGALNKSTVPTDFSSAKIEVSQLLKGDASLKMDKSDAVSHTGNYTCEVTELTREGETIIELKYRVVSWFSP
Test Protocol: direct titration ELISA, FIG. 9A

>  <Binder>
A-D5.6 in human IgG1null format (antibody, V domains shown, Designer clone from A-D5; IgG1null) VH: EVQLVQSGAEVKKPGESLKISCKGSGYTFTNYYIFWVRQMPGKGLEWMGIINPVDGDTNYNPSFQGQVTISADKSISTAYLQWSSLKASDTAMYYCARGGYTMDRWGQGTLVTVSS VL: DIVMTQSPLSLPVTPGEPASISCRSSQSLLHSNGYNYLHWYLQKPGQSPQLLIYKGSNRLSGVPDRFSGSGSGTDFTLKISRVEAEDVGVYYCFQNTQTPRTFGQGTKVEIK

>  <binding result>
binds

$$$$
>  <Binder>
A-D5.2 in human IgG1null format (antibody, V domains shown, Designer clone from A-D5; IgG1null) VH: EVQLVQSGAEVKKPGESLKISCKGSGYSFTNYYIFWVRQMPGKGLEWMGIINPVDGDTRYNPSFQGQVTISADKSISTAYLQWSSLKASDTAMYYCARGGYTMDRWGQGTLVTVSS VL: DIVMTQSPLSLPVTPGEPASISCRSSQSLLHSNGYTYLHWYLQKPGQSPQLLIYKVSNRLSGVPDRFSGSGSGTDFTLKISRVEAEDVGVYYCFQNTHTPRTFGQGTKVEIK

>  <binding result>
binds

$$$$
